Listing: CC50 of selected compounds
Assay: Cytotoxicity against human A549 cells assessed as cell killing measured after 24 to 48 hrs by MTT assay
Type: toxicity, cell-based
Conditions: time 24-48 hrs, read-out: LD50 (the source's name)
Unit µg/mL implied. Number only.

Sample answers from the record:
record_smiles | readout_number
O=C(N/N=C/c1cc(Br)ccc1O)c1cc(Br)co1 | 16
O=C(N/N=C/c1cc(Br)cc(Br)c1O)c1ccc(C(F)(F)F)s1 | 1
O=C(N/N=C/c1cc(Br)cc(Br)c1O)c1cc(Br)co1 | 16

Request: Data request, read-out CC50, for O=C(N/N=C/c1ccc(Br)cc1O)c1ccc(C(F)(F)F)s1
Result: 0.5

Request: Now try O=C(N/N=C/c1c(O)ccc2ccccc12)c1cc(Br)c(Br)o1 .
Result: 32

Request: Now try O=C(N/N=C/c1ccc(Br)cc1O)c1ccc(C(F)(F)F)o1 .
Result: 4

Request: Now try O=C(N/N=C/c1ccc(Br)cc1O)c1cc(Br)co1 .
Result: 16

Request: Now try O=C(N/N=C/c1cc(Br)ccc1O)c1ccc(C(F)(F)F)s1 .
Result: 1

Request: Now try O=C(N/N=C/c1c(O)ccc2ccccc12)c1cncc(Br)c1 .
Result: 2

----------
Tested on: Cryptococcus neoformans
Test: Antifungal activity against wild type Cryptococcus neoformans H99 assessed as inhibition of fungal growth in presence of amphotericin B
Assay type: functional
assay_readout: MIC80

Request: Data request, read-out MIC80, for O=C(N/N=C/c1ccc(Br)cc1O)c1cc(Br)c(Br)s1
Result: 1 ng/mL

Request: Now try O=C(N/N=C/c1ccc(Br)cc1O)c1ccc(Br)o1 .
Result: 15 ng/mL

Request: Now try O=C(N/N=C/c1cc(Br)ccc1O)c1ccc(Br)o1 .
Result: 15 ng/mL

Request: Now try O=C(N/N=C/c1cc(Br)ccc1O)c1csc(Br)c1 .
Result: 1 ng/mL

----------
Assay: Cytotoxicity against human A549 cells assessed as cell killing measured after 24 to 48 hrs by MTT assay
Assay type: toxicity, cell-based
Settings: time 24-48 hrs, read-out: LD50 (the source's name)
assay_readout: CC50 (µg/mL)
Unit µg/mL implied. Number only.

record_smiles | CC50 [µg/mL]
O=C(N/N=C/c1c(O)ccc2ccccc12)c1ccc(C(F)(F)F)s1 | 0.12
O=C(N/N=C/c1ccc(Br)cc1O)c1cc(Br)c(Br)o1 | 16

Alright, here's another molecule for you.
Request: Data request, read-out CC50, for O=C(N/N=C/c1cc(Br)cc(Br)c1O)c1cc(Br)c(Br)o1
Result: 16

----------
Assay: Selectivity index, ratio of LD50 for human A549 cells to MIC80 for Cryptococcus neoformans H99
Type: toxicity
Settings: read-out: Selectivity Index
Listing: selectivity ratio of selected compounds
Just the number, please, no unit after it.

Sample answers from the record:
record_smiles | readout_number
O=C(N/N=C/c1ccc(Br)cc1O)c1cc(Br)co1 | 32
O=C(N/N=C/c1ccc(Br)cc1O)c1ccc(C(F)(F)F)s1 | 8.3
O=C(N/N=C/c1cc(Br)ccc1O)c1ccc(C(F)(F)F)s1 | 143

Request: Data request, read-out selectivity ratio, for O=C(N/N=C/c1cc(Br)cc(Br)c1O)c1csc(Br)c1
Result: 133

----------
Assay: Selectivity index, ratio of LD50 for human A549 cells to MIC80 for Cryptococcus neoformans H99
Format: toxicity
Conditions: read-out: Selectivity Index
Listing: selectivity ratio of selected compounds
Just the number, please, no unit after it.

record_smiles | assay_readout | readout_number
O=C(N/N=C/c1cc(Br)cc(Br)c1O)c1cc(Br)c(Br)o1 | selectivity ratio | 133
O=C(N/N=C/c1cc(Br)cc(Br)c1O)c1ccc(C(F)(F)F)s1 | selectivity ratio | 16.6
O=C(N/N=C/c1c(O)ccc2ccccc12)c1ccc(C(F)(F)F)o1 | selectivity ratio | 0.24
O=C(N/N=C/c1c(O)ccc2ccccc12)c1cc(Br)c(Br)o1 | selectivity ratio | 267
O=C(N/N=C/c1cc(Br)ccc1O)c1cc(Br)co1 | selectivity ratio | 64
O=C(N/N=C/c1c(O)ccc2ccccc12)c1ccc(C(F)(F)F)s1 | selectivity ratio | 17.1
O=C(N/N=C/c1c(O)ccc2ccccc12)c1ccc(Br)o1 | selectivity ratio | 267
O=C(N/N=C/c1ccc(Br)cc1O)c1cncc(Br)c1 | selectivity ratio | 64

Request: Data request, read-out selectivity ratio, for O=C(N/N=C/c1cc(Br)cc(Br)c1O)c1ccc(Br)o1
Result: 267
